- EXPERIMENTAL DETAILS: in vitro
- EXPERIMENTAL SETUP: human, Caco-2, Mean Papp B − A (10^−6 cm/s)
OBSERVATION TYPE: Papp B→A at 2 h, 10 μM (×10⁻⁶ cm/s)

(a) CC(=O)CC(c1ccccc1)c1c(O)c2ccccc2oc1=O (centres unmarked) [Warfarin]
(b) CNC(=C[N+](=O)[O-])NCCSCc1ccc(CN(C)C)o1 [Ranitidine]
Input line: Select the item whose Papp B→A at 2 h, 10 μM value is smaller, choosing between a and b . Refer to your chosen item by its label in the answer.
Output line: b
(b: 1.18 ×10⁻⁶ cm/s, a: 20.8 ×10⁻⁶ cm/s)
